ASSAY TARGET: Autotaxin (Homo sapiens)
METHOD DESCRIPTION: Activity of human autotaxin in human […] cells assessed as effect on enzyme-mediated of FS3 hydrolysis at 0.1 uM
Format: cell-based
Design: scale not given: the % may be the effect or the level left
OBSERVED PROPERTY: Activity (%)

smiles_str=CCCCCCCCCCCCCCCCCOC[C@@H](O)COP(=O)([O-])OCC[N+](C)(C)C assay_target="Autotaxin (Homo sapiens)" observed_property=Activity unit_name=% numeric_readout=100
smiles_str=CCCCCCCCCCCCCCCCCCC(=O)OC[C@@H](O)COP(=O)(O)O assay_target="Autotaxin (Homo sapiens)" observed_property=Activity unit_name=% numeric_readout=89
smiles_str=CCCCCCCCCCCCCCCCCCCOC[C@@H](O)COP(=O)([O-])OCC[N+](C)(C)C assay_target="Autotaxin (Homo sapiens)" observed_property=Activity unit_name=% numeric_readout=92
smiles_str=CCCCCCCCCCCCCCCCOP(=O)([O-])NCC[N+](C)(C)C assay_target="Autotaxin (Homo sapiens)" observed_property=Activity unit_name=% numeric_readout=81
smiles_str=CCCCCCCCCCCCCCOC[C@H](O)COP(=O)([O-])CCC[N+](C)(C)C assay_target="Autotaxin (Homo sapiens)" observed_property=Activity unit_name=% numeric_readout=97
smiles_str=CCCCCCCCC/C=C/CCCCCCCC(=O)OC[C@@H](O)COP(=O)([O-])OCC[N+](C)(C)C assay_target="Autotaxin (Homo sapiens)" observed_property=Activity unit_name=% numeric_readout=92
smiles_str=CCCCCCCCCCCCCCCCOC[C@@H](O)COP(=O)([O-])CCC[N+](C)(C)C assay_target="Autotaxin (Homo sapiens)" observed_property=Activity unit_name=% numeric_readout=83
smiles_str=CCCCCCCCCCCCCCCCCCP(=O)([O-])OCC[N+](C)(C)C assay_target="Autotaxin (Homo sapiens)" observed_property=Activity unit_name=% numeric_readout=110
smiles_str=CCCCCCCCCCCCCCCCCCOC[C@@H](O)COP(=O)([O-])CCC[N+](C)(C)C assay_target="Autotaxin (Homo sapiens)" observed_property=Activity unit_name=% numeric_readout=81
smiles_str=CCCCCCC(=O)OC[C@@H](O)COP(=O)([O-])OCC[N+](C)(C)C assay_target="Autotaxin (Homo sapiens)" observed_property=Activity unit_name=% numeric_readout=104
smiles_str=CCCCCCCCCCCCCCOC[C@@H](O)COP(=O)([O-])CCC[N+](C)(C)C assay_target="Autotaxin (Homo sapiens)" observed_property=Activity unit_name=% numeric_readout=98
smiles_str=CCCCCCCCCCC(=O)OC[C@@H](O)COP(=O)([O-])OCC[N+](C)(C)C assay_target="Autotaxin (Homo sapiens)" observed_property=Activity unit_name=% numeric_readout=101
smiles_str=CCCCCCCCCCCCCCOP(=O)([O-])OCC[N+](C)(C)C assay_target="Autotaxin (Homo sapiens)" observed_property=Activity unit_name=% numeric_readout=110
smiles_str=CCCCCCCCC/C=C/CCCCCCCOP(=O)([O-])NCC[N+](C)(C)C assay_target="Autotaxin (Homo sapiens)" observed_property=Activity unit_name=% numeric_readout=93
smiles_str=CCCCCCCCCCCCCCCCOP(=O)([O-])OCC[N+](C)(C)C assay_target="Autotaxin (Homo sapiens)" observed_property=Activity unit_name=% numeric_readout=114
smiles_str=CCCCCCCCCCCCCCC(=O)OC[C@@H](O)COP(=O)([O-])OCC[N+](C)(C)C assay_target="Autotaxin (Homo sapiens)" observed_property=Activity unit_name=% numeric_readout=72
smiles_str=CCCCCCCCCCCCOC[C@@H](O)COP(=O)([O-])CCC[N+](C)(C)C assay_target="Autotaxin (Homo sapiens)" observed_property=Activity unit_name=% numeric_readout=99
smiles_str=CCCCCCCCCCCCOC[C@H](O)COP(=O)([O-])CCC[N+](C)(C)C assay_target="Autotaxin (Homo sapiens)" observed_property=Activity unit_name=% numeric_readout=98
smiles_str=CCCCCCCCCCCCCCCCCCOP(=O)([O-])NCC[N+](C)(C)C assay_target="Autotaxin (Homo sapiens)" observed_property=Activity unit_name=% numeric_readout=86
smiles_str=CCCCCCCCCCCCCCCCC(=O)OC[C@@H](O)COP(=O)(O)O assay_target="Autotaxin (Homo sapiens)" observed_property=Activity unit_name=% numeric_readout=74
smiles_str=CCCCCCCCCCCCC(=O)OC[C@@H](O)COP(=O)([O-])OCC[N+](C)(C)C assay_target="Autotaxin (Homo sapiens)" observed_property=Activity unit_name=% numeric_readout=102
